# System Tested: human MC1-R (human) (UniProt Q01726)
# Sequence (Q01726 whole entry): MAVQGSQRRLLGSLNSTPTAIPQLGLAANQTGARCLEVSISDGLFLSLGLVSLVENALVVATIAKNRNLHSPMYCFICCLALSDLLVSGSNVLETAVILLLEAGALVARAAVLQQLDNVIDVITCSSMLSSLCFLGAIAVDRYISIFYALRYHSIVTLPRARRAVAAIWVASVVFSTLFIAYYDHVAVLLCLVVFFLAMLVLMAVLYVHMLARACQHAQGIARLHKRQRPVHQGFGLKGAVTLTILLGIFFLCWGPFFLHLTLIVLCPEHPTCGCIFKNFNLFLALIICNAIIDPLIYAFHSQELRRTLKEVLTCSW
# Method Notes: radioligand competition, NDP-α-MSH, human MC1-R, normal system
Measurement Type: pKi
Kindly note that pKi refers to -log10 of the concentration in mol/L and answer with the value alone.

Challenge: Param item = XDHXRXK (N-terminal acetyl; Nle at 1 (X); D-Nal 2 at 4 (X); Nal 2 at 6 (X); cyclo(Asp 2 to Lys 7); free C-terminal acid) [Ac-Nle-cyclo(Asp-His-D-Nal 2-Arg-Nal 2-Lys)-OH] ; retrieve measured pKi.
Response given: 9.60

Reference source for all entries: patent US20090081197A1
